- Test system: S. aureus RN4220
- assay.info: growth inhibition call (relative growth <= 0.2)
- run.parameters: 50 µM
Screen size: about 39,000 compounds; about 500 (1.3%) were called active. Many of the other results were omitted from the sample, so actives are more common in it than they were.
Classes used: active, inactive

| compound | category.label |
| --- | --- |
| CN([NH2+][O-])c1ccc(O)c(O)c1 | inactive |
| CC(=O)Oc1cc2c(c(C)c1OC(C)=O)CC=C1[C@@]2(C)CC[C@@]2(C)[C@H]3C[C@](C)(C(=O)O)CC[C@]3(C)CC[C@]12C | active |
| CN(C)CC#Cc1ccc([C@H]2[C@@H](CO)N3CCCCN(C(=O)CN(C)C)C[C@@H]23)cc1 | inactive |
| C[C@H]1CN([C@@H](C)CO)C(=O)Cc2cc(NS(=O)(=O)c3cn(C)cn3)ccc2O[C@@H]1CN(C)C(=O)Nc1ccc2c(c1)OCO2 | inactive |
| C[C@H]1CN([C@@H](C)CO)C(=O)c2cccc(NC(=O)Nc3ccc(C(F)(F)F)cc3)c2O[C@@H]1CN(C)CC1CCCCC1 | inactive |
| Cc1cccnc1[C@H](c1ccc(F)cc1)N(C)C(=O)C1CCN(CCOc2ccc(Cl)cc2Cl)CC1 | active |
| CO[C@H]1CN(C)C(=O)c2cc(NS(=O)(=O)CC(F)(F)F)ccc2OC[C@@H](C)N(C(=O)NC(C)C)C[C@H]1C | inactive |
| Cc1ccc(S(=O)(=O)Nc2cccc3c2O[C@@H](CN(C)CC2CC2)[C@@H](C)CN([C@H](C)CO)C3=O)cc1 | inactive |
| Cc1ccccc1[C@@H](c1ncccc1C)N(C)C(=O)C1CCN(CCOc2ccc3ccccc3c2)CC1 | inactive |
| Cc1ccc(S(=O)(=O)N2C[C@@H](O)COC[C@H]3O[C@@H](CC(=O)NCCN4CCCCC4)CC[C@@H]32)cc1 | inactive |
| O=C1CCC(c2ccc(O)cc2)CC1 | inactive |
| Cc1noc(C)c1NC(=O)Nc1ccc2c(c1)CC(=O)N([C@H](C)CO)C[C@H](C)[C@H](CN(C)Cc1ccc(Cl)c(Cl)c1)O2 | inactive |
| C[C@H](CO)N1C[C@H](C)[C@H](CN(C)S(=O)(=O)c2cccc(F)c2)Oc2ncc(C#CCN(C)C)cc2C1=O | inactive |
| C[C@H](CO)N1C[C@H](C)[C@H](CN(C)Cc2ccc3c(c2)OCO3)Oc2c(NC(=O)C3CC3)cccc2C1=O | inactive |
| CCN1CCN(c2cc3c(cc2F)c(=O)c(C(=O)O)cn3C2CC2)CC1 | active |
| COc1ccccc1[C@@H](NC(=O)C1CCN(CCOc2ccc(Cl)cc2Cl)CC1)c1ccccn1 | inactive |
| C[C@H]1CN([C@@H](C)CO)C(=O)c2cc(NC(=O)CCCN(C)C)ccc2O[C@H]1CN(C)Cc1ccc(C(=O)O)cc1 | inactive |
| C[C@@H]1CN([C@@H](C)CO)S(=O)(=O)c2ccc(Br)cc2O[C@H]1CN(C)S(=O)(=O)c1ccc(F)cc1 | inactive |
| Cc1c2c(nn1C)CSCc1cc(n(C)n1)CSc1cc(c3ccccc3c1)OCCCc1c(C(=O)O)n(C)c3c-2c(Cl)ccc13 | active |
| C[C@@H]1CCCCO[C@@H](CN(C)C(=O)c2ccccc2)[C@@H](C)CN([C@H](C)CO)C(=O)c2cc(NC(=O)CCCCCC(=O)Nc3ccccc3N)ccc2O1 | inactive |
| CCn1cc(C(=O)O)c(=O)c2cc(F)c(N3CCN(C(=S)Nc4cc(C(F)(F)F)ccc4Cl)CC3)cc21 | inactive |
| C[C@@H]1CN([C@H](C)CO)C(=O)c2cccc(NC(=O)Nc3ccc(C(F)(F)F)cc3)c2O[C@H]1CN(C)CC1CCCCC1 | inactive |
| CCn1cc(C(=O)O)c(=O)c2cnc(N3CCCC3)nc21 | inactive |
| CC1(C(=O)O)CCC2(C)CCC3(C)C(=CC(=O)C4C5(C)CCC(O)C(C)(C)C5CCC43C)C2C1 (configuration not stated) | inactive |
| O=C(O)c1cn(C2CC2)c2cc(N3CCNCC3)c(F)cc2c1=O | inactive |
| C[C@@H]1CN([C@H](C)CO)C(=O)c2cccc(NC(=O)NC3CCCCC3)c2O[C@H]1CN(C)C(=O)Nc1ccc(C(F)(F)F)cc1 | inactive |
| C[C@H]1CN([C@@H](C)CO)C(=O)c2cccc(NC(=O)NC3CCCCC3)c2O[C@H]1CN(C)C(=O)Nc1ccc(C(F)(F)F)cc1 | inactive |
| O=C(C[C@H]1C[C@@H]2c3cc(NC(=O)Nc4ccc(C(F)(F)F)cc4)ccc3O[C@@H]2[C@H](CO)O1)NCCc1ccccc1 | inactive |
| CCn1cc(C(=O)O)c(=O)c2ccc(C)nc21 | inactive |
| C[C@H](O)C#Cc1ccc2c(c1)O[C@H](CN(C)C(=O)CN(C)C)[C@H](C)CN([C@H](C)CO)S2(=O)=O | inactive |
| C[C@@H]1CN([C@H](C)CO)C(=O)c2cc(NS(=O)(=O)c3cn(C)cn3)ccc2O[C@H]1CN(C)Cc1ccc(C(=O)Nc2ccccc2N)cc1 | inactive |
| C[C@@H]1CN([C@H](C)CO)C(=O)c2cccc(NC(=O)Nc3ccc(C(F)(F)F)cc3)c2O[C@@H]1CN(C)C(=O)NC1CCCCC1 | inactive |
